This collection of values is drawn from PubChem BioAssay (NCI).

system: HCT-15 colon; experiment: NCI tumour cell line growth inhibition, 48 h; in the data active means GI50 below about 0.43 µM; inactive means the rest
Classes to choose from: label 1 = active, label 0 = inactive

* CC(C)CCC[C@@H](C)[C@H]1CC[C@H]2[C@@H]3CC=C4C[C@@H](C(C(=O)O)C(=O)O)CC[C@]4(C)[C@H]3CC[C@]12C | label 1

Task: Name the outcome recorded for CC12CCC(O)CC1CCC1C2CCC2(C)C(C3=CC(=O)OC3)CCC12O (stereo not drawn) in the assay.
Output: label 0

Task: Name the outcome recorded for Cc1nc2ccccc2c(N)c1-c1cc(C)c2c(C)nc3ccccc3c2n1 in the assay.
Output: label 1

Task: Name the outcome recorded for COc1cc(Cc2cnc(/N=C3\C(=O)N(CN4CCN(c5c(F)cc6c(=O)c(C(=O)O)cn(C7CC7)c6c5OC)CC4C)c4ccc(F)cc43)nc2N)cc(OC)c1OC (stereo not drawn) in the assay.
Output: label 0

Task: Name the outcome recorded for Cn1c2ccccc2c2c(Nc3ccccc3)c3ccccc3nc21 in the assay.
Output: label 0

Task: Name the outcome recorded for COc1cc(CNc2cnc3cc(N)cc(N)c3n2)cc(OC)c1 in the assay.
Output: label 0

Task: Name the outcome recorded for COc1ccc(-c2nc3sccn3c2/C(N)=N/C(=N)N)cc1OC in the assay.
Output: label 0

Task: Name the outcome recorded for NC(=O)c1cccc2cn(-c3ccc([C@@H]4CCCNC4)cc3)nc12 in the assay.
Output: label 0

* * *

tested on: MOLT-4 leukemia; assay: NCI tumour cell line growth inhibition, 48 h
Measured TGI, listed per entry for reference.

Task: Which measured TGI value corresponds to COC(=O)[C@H](Cc1c[nH]c2ccccc12)NP(=O)(O)OCC1C=CC(n2cc(C)c(=O)[nH]c2=O)O1 (stereo partly drawn) ?
Output: > 100 µM

Task: Which measured TGI value corresponds to C(/c1ccco1)=c1/nc(-c2ccccc2)n2c1nc1ccccc12 ?
Output: 33.5 µM

Task: Which measured TGI value corresponds to CC/C=C\CCC/C=C1/C(=O)C=C[C@@H]1C/C=C\CCCC(=O)OC ?
Output: 8.39 µM

* * *

test system: UO-31 renal; experiment: NCI tumour cell line growth inhibition, 48 h; in the data active = GI50 below about 0.43 µM; inactive = the rest
Classes to choose from: active, inactive

Below are worked cases with known answers.
- COc1cc(Cc2cnc(/N=C3\C(=O)N(CN4CCN(c5c(F)cc6c(=O)c(C(=O)O)cn(C7CC7)c6c5OC)CC4C)c4ccc(F)cc43)nc2N)cc(OC)c1OC (configuration not stated): inactive
- COC1=CC(=O)c2nc(-c3ccncc3)[nH]c2C1=O: inactive
- COc1ccc2c(c1)/C(=C/c1c(C)nc3sc(C)nn13)C(=O)N2: inactive

Task: Name the outcome recorded for O=C1C(Cl)=C(Nc2cccc(Cl)c2)C(=O)N1Cc1ccc(Cl)cc1Cl in the assay.
Output: inactive

Task: Name the outcome recorded for COc1cc(CNc2cnc3cc(N)cc(N)c3n2)cc(OC)c1 in the assay.
Output: inactive

Task: Name the outcome recorded for O=S(=O)(NC1=NCCN1C(=S)SN1CCn2c1nsc2=S)c1ccc(OC(F)(F)F)cc1 in the assay.
Output: inactive

Task: Name the outcome recorded for O=C(Nc1ccccc1OC(F)(F)F)Nc1n[nH]c2ccccc12 in the assay.
Output: inactive

* * *

tested on: COLO 205 colon; test: NCI tumour cell line growth inhibition, 48 h
Recorded Endpoint: TGI

For orientation, consider the following solved cases.
* FC(F)(F)c1cc(Cl)cnc1N/N=C(/c1ccccc1)c1ccccn1 | > 100 µM
* [N-]=[N+]=Nc1cc(=O)oc2ccccc12 | > 100 µM

Next, consider the following compound.
Task: Given the entry COC1(OC)CCC2C1C1CCC(OC)(OC)C21 (stereo not drawn) , what TGI was observed with COLO 205 colon?
Output: > 50 µM

* * *

tested on: SF-539 CNS; test: NCI tumour cell line growth inhibition, 48 h
Recorded Endpoint: TGI (µM)
Dear colleague, please return just the value in µM, with no unit written.

- Cc1ccc(C(=O)/C(=C/c2ccc([N+](=O)[O-])cc2)SCc2ccc(Cl)cc2)cc1: 4.49

Task: Which measured TGI value corresponds to COc1cc(-c2nn(-c3ccc(NC(=O)c4ccc(Cl)c(C(F)(F)F)c4)cc3)cc2-c2ccncc2)ccc1Cl ?
Output: 8.6

Task: Which measured TGI value corresponds to CCOC(=O)c1c2ccccc2n2c(N)c(C(N)=O)nnc12 ?
Output: 49.8

* * *

Measured TGI, listed per entry for reference.
tested on: U251 CNS; experiment: NCI tumour cell line growth inhibition, 48 h

For orientation, consider the following solved cases.
- NNC(=O)Nc1cccnc1: > 100 µM
- C[n+]1c2ccccc2c(/C=N\NS(=O)(=O)c2ccc(O)c(C(=O)O)c2)c2ccccc21: > 100 µM

Next, consider the following compound.
Task: Which measured TGI value corresponds to CCOC(=O)N1CCC2(CC1)C[C@](C)(C(C)=O)C(C)O2 (stereo partly drawn) ?
Output: > 100 µM

* * *

system: UO-31 renal; test: NCI tumour cell line growth inhibition, 48 h
Recorded Endpoint: TGI

• CCOC(=O)C(NC(C)=O)(Nc1ccc(F)cc1)C(F)(F)F (stereo unspecified) = > 100 µM

Next, consider the following compound.
Task: Which measured TGI value corresponds to Cc1cccc(/C=N/NC(=S)Nc2ccccc2)n1 ?
Output: > 31.2 µM

* * *

test system: K-562 leukemia; assay: NCI tumour cell line growth inhibition, 48 h
Measured TGI, listed per entry for reference.

For orientation, consider the following solved cases.
• C=C1c2nc3ccccc3n2C=C(c2ccccc2)N1c1ccc([N+](=O)[O-])cc1 = 58.2 µM
• O=C1c2ccccc2C2C1N2C(=O)C(F)(F)F (configuration not stated) = > 100 µM
• O=C(O)CCc1coc2ccc(O)cc12 = > 100 µM

Task: Which measured TGI value corresponds to N#CC(c1ccc(Cl)cc1)c1cccc(C(C#N)c2ccc(Cl)cc2)n1 (configuration not stated) ?
Output: > 100 µM

Task: Which measured TGI value corresponds to Oc1cc2c3c(c1)c1cc4c(cc1c[n+]3CC2)OCO4 ?
Output: > 100 µM

Task: Which measured TGI value corresponds to CC[C@@]1(C[C@H]2C[C@@]3(C(=O)OC)c4[nH]c5ccccc5c4CCN3C2=O)COC2(CCCCC2)O1 ?
Output: > 100 µM

Task: Which measured TGI value corresponds to CC/C=C\CCC/C=C1/C(=O)C=C[C@@H]1C/C=C\CCCC(=O)OC ?
Output: 11.6 µM

Task: Which measured TGI value corresponds to O=c1[nH][nH]c(=O)n1Cc1ccccc1Cn1c(=O)[nH][nH]c1=O ?
Output: > 100 µM

Task: Which measured TGI value corresponds to COc1cc(/C=N/NC(=O)c2ccc(C(F)(F)F)nc2Nc2ccc(Cl)cc2C)ccc1O ?
Output: 7.17 µM

* * *

system: HOP-62 NSCLC; assay: NCI tumour cell line growth inhibition, 48 h
Recorded Endpoint: TGI (µM)
Dear colleague, please return just the value in µM, with no unit written.

Task: Which measured TGI value corresponds to CCCCC(=O)OCC(=O)[C@]1(O)Cc2c(O)c3c(c(O)c2[C@@H](OC2CC(NC(=O)C(F)(F)F)C(O)C(C)O2)C1)C(=O)c1c(OC)cccc1C3=O (some centres undefined) ?
Output: 0.988

Task: Which measured TGI value corresponds to COc1cc(Cc2cnc(/N=C3\C(=O)N(CN4CCN(c5c(F)cc6c(=O)c(C(=O)O)cn(C7CC7)c6c5OC)CC4C)c4ccc(F)cc43)nc2N)cc(OC)c1OC (centres undefined) ?
Output: 27.4

Task: Which measured TGI value corresponds to Cc1ccc(N=Nc2ccc(N(CCC#N)CCC#N)cc2C)c(Br)c1 ?
Output: 93

Task: Which measured TGI value corresponds to C=C1C(=O)C23CC1CCC2C12CO[C@@H]4OCC(C)(CC[C@@H]1OC3=O)C42 (some centres undefined) ?
Output: 43.4

* * *

test system: COLO 205 colon; experiment: NCI tumour cell line growth inhibition, 48 h
Recorded Endpoint: TGI

For orientation, consider the following solved cases.
- O=C([O-])CC(=O)[O-].O=C([O-])CC(=O)[O-].[K+].[Pd+2]: > 100 µM
- Brc1ccc(N=c2nc3ccccn3n3nc(-c4ccccc4)cc23)cc1: > 100 µM
- CCOC(=O)c1c2ccccc2n2c(N)c(C(N)=O)nnc12: > 100 µM

Task: Which measured TGI value corresponds to Cc1ccc(NC2=C(Cl)C(=O)N(Cc3ccccc3)C2=O)cc1O ?
Output: > 100 µM

Task: Which measured TGI value corresponds to O=C(Nc1ccccc1OC(F)(F)F)Nc1n[nH]c2ccccc12 ?
Output: > 100 µM

Task: Which measured TGI value corresponds to O=C(Cc1cccs1)N[C@@H]1C(=O)N2C(C(=O)OC(c3ccccc3)c3ccccc3)=C(CO)CS[C@H]12 ?
Output: > 100 µM

Task: Which measured TGI value corresponds to CNC(=O)C(C)C1CCC2(C)C=CC(=O)C(C)=C2C1O (centres undefined) ?
Output: > 64.7 µM

Task: Which measured TGI value corresponds to O=C1C2C(C(=O)N1OS(=O)(=O)c1ccccc1)N(Cc1ccccc1)C(=O)N2Cc1ccccc1 (centres undefined) ?
Output: > 100 µM

Task: Which measured TGI value corresponds to Cc1ccc(N=Nc2ccc(N(CCC#N)CCC#N)cc2C)c(Br)c1 ?
Output: > 100 µM
